Entries annotated with measured % DAMGO + BFNA
- tested system: mu opiate receptor (MOR) (Rattus norvegicus, UniProt P33535)
- Construct: from tissue; host or cells: striatum (membrane preparation)
- Sequence (P33535 whole entry): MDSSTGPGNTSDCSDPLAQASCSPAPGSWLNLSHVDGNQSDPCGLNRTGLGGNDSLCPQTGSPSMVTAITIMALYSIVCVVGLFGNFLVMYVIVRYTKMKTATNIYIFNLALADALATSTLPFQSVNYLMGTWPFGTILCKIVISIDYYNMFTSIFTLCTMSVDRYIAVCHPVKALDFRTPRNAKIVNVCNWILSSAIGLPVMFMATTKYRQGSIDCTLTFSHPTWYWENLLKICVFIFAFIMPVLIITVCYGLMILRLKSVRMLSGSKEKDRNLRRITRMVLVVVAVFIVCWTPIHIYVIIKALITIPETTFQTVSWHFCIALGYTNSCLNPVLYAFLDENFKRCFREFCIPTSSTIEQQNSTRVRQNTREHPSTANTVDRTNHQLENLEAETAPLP
- Type: biochemical
- Method: To assess the mu opiate receptor (MOR) agonist activity of positive compounds from the FLNA screening, compounds were tested in a [^35S]GTPγS binding assay using striatal membranes. […] The immunocomplexes so formed were collected by incubation at 25° C. for 30 minutes with 40 μl of agarose-conjugated protein A/G beads and centrifugation at 5,000×g at 4° C. for 5 minutes. […] The radioactivity in the suspension was determined by liquid scintillation spectrometry.

compound: CC(=O)c1ccc(S(=O)(=O)N2CCC3(CC2)NCCS3)cc1
unit annotation: %
% DAMGO + BFNA: 327.0
--
compound: COc1c2c(cc3c1C(CC(O)CCc1ccccc1)[N+](C)(C)CC3)OCO2 (centres unmarked)
unit annotation: %
% DAMGO + BFNA: 246.4
--
compound: COc1ccccc1CC(O)CC1c2c(cc3c(c2OC)OCO3)CC[N+]1(C)C (centres unmarked)
unit annotation: %
% DAMGO + BFNA: 35.5
--
compound: CCCCN1CCC2(CC1)OCCN2S(=O)(=O)c1ccc(OC)cc1 [Compound C0102M]
unit annotation: %
% DAMGO + BFNA: 316.6
--
compound: CC(=O)c1ccc(S(=O)(=O)N2CCOC23CCN(CC(=O)O)CC3)cc1 [Compound C0100M]
unit annotation: %
% DAMGO + BFNA: 411.8
--
compound: COc1ccc(S(=O)(=O)N2CCOC23CCN(C(=O)OC(C)(C)C)CC3)cc1
unit annotation: %
% DAMGO + BFNA: 501.8
--
compound: CCOC(=O)CN1CCC2(CC1)OCCN2S(=O)(=O)c1ccc(C(C)=O)cc1 [Compound C0099M]
unit annotation: %
% DAMGO + BFNA: 241.5
--
compound: O=C(c1ccc([N+](=O)[O-])cc1)N1CCC2(CC1)OCCN2S(=O)(=O)c1ccc([N+](=O)[O-])cc1 [Compound C0033]
unit annotation: %
% DAMGO + BFNA: 235.0
